- EXPERIMENT DESCRIPTION: Single dose PK in healthy subjects (Cohorts 1, 2, S1 and S2), plasma
- Assay type: in vivo, human
- CONDITION CONTEXT: human, plasma, intravenous, 14 mg; 8 hr; read-out: Plasma concentration, Mean
VALUE KIND: concentration at 8 h (ng/mL)
Express your answer in ng/mL, writing the number without its unit.

What does the record list as concentration at 8 h for COC(=O)N1CCC[C@H](NS(C)(=O)=O)[C@@H]1CO[C@H]1CC[C@@H](c2ccccc2)CC1 ?
28.9

----------
- EXPERIMENT DESCRIPTION: Single dose PK in healthy subjects (Cohorts 1, 2, S1 and S2), plasma
- Type: in vivo, human
- CONDITION CONTEXT: human, plasma, intravenous, 14 mg; 0.5 hr; read-out: Plasma concentration, Mean
- Description: […]
VALUE KIND: concentration at 0.5 h (ng/mL)
Please state the figure in ng/mL; there is no need to write the unit.

Recorded concentration at 0.5 h for COC(=O)N1CCC[C@H](NS(C)(=O)=O)[C@@H]1CO[C@H]1CC[C@@H](c2ccccc2)CC1 , please?
22.5

----------
- EXPERIMENT DESCRIPTION: Single dose PK in healthy subjects (Cohorts 1, 2, S1 and S2), plasma
- Assay type: in vivo, human
- CONDITION CONTEXT: human, plasma, intravenous, 240 mg; 1 hr; read-out: Plasma concentration, Minimum
VALUE KIND: concentration at 1 hr (ng/mL)
Please give a number only; it is taken to be in ng/mL.

What measured concentration at 1 hr goes with COC(=O)N1CCC[C@H](NS(C)(=O)=O)[C@@H]1CO[C@H]1CC[C@@H](c2ccccc2)CC1 ?
265

----------
- EXPERIMENT DESCRIPTION: Single dose PK in healthy subjects (Cohorts 1, 2, S1 and S2), plasma
- Format: in vivo, human
- CONDITION CONTEXT: human, plasma, intravenous, 56 mg; 1.5 hr; read-out: Plasma concentration, Minimum
- From the text: […]
VALUE KIND: concentration at 1.5 h (ng/mL)
Write it as a number; the unit ng/mL goes unstated.

Suppose we examine the compound COC(=O)N1CCC[C@H](NS(C)(=O)=O)[C@@H]1CO[C@H]1CC[C@@H](c2ccccc2)CC1 ; what concentration at 1.5 h value has been reported?
75.5

----------
- EXPERIMENT DESCRIPTION: Single dose PK in healthy subjects (Cohorts 1, 2, S1 and S2), plasma
- Assay type: in vivo, human
- CONDITION CONTEXT: human, plasma, intravenous, 134.4 mg; 2 hr; read-out: Plasma concentration, Median
VALUE KIND: concentration at 2 h (ng/mL)
Lab book: enter the figure in ng/mL, no units written.

Would you mind telling me what concentration at 2 h value was observed for COC(=O)N1CCC[C@H](NS(C)(=O)=O)[C@@H]1CO[C@H]1CC[C@@H](c2ccccc2)CC1 ?
244

----------
- EXPERIMENT DESCRIPTION: Single dose PK in healthy subjects (Cohorts 1, 2, S1 and S2), plasma
- Assay type: in vivo, human
- CONDITION CONTEXT: human, plasma, intravenous, 28 mg; 6 hr; read-out: Plasma concentration, Mean
VALUE KIND: concentration at 6 hr (ng/mL)
The figure you give is taken to be in ng/mL; do not add the unit.

Record request: concentration at 6 hr value, item COC(=O)N1CCC[C@H](NS(C)(=O)=O)[C@@H]1CO[C@H]1CC[C@@H](c2ccccc2)CC1
46.8
